- run description: in vitro
- test conditions: human
readout type: CC50

Exercise: For the molecule N=C(N)NCCC[C@H](NC(=O)[C@H](CCCNC(=N)N)NC(=O)[C@H](CCCNC(=N)N)NC(=O)[C@H](CCC(N)=O)NC(=O)[C@H](CCCNC(=N)N)NC(=O)[C@H](CCCNC(=N)N)NC(=O)[C@H](CCCCN)NC(=O)[C@H](CCCCN)NC(=O)[C@H](CCCNC(=N)N)NC(=O)CNC(=O)[C@@H](N)Cc1ccc(O)cc1)C(=O)O [TAT, YGRKKRRQRRR (SEQ ID NO: 7), reference compound] , give its reported CC50.
Key: > 400 µg/mL
